# assaySummary: in vitro
In this section we review reported CC50 at 72 h values for a set of compounds.
Response body: numeric value in µg/mL, unit text excluded.

C[N+](C)(C)CCO.[I-] [Compound 4c, (2-Hydroxyethyl)trimethylammonium iodide, reference compound]
372
C[N+](C)(CI)CCO
17.8

Next up:
Query string: Note CC50 at 72 h for the compound shown: `C[N+](C)(CCl)CCO`
Result string: 17.9

###

# assaySummary: in vitro
In this section we review reported CC50 at 72 h values for a set of molecules.

Some entries whose results are on file:
C[N+](C)(C)CCC=C(c1ccccc1)c1ccccc1.[I-] [Compound 3a]
39.2 µg/mL
C[N+](C)(CI)CCCCC=C(c1ccccc1)c1ccccc1.[I-] [Compound 2c]
9.5 µg/mL

Next up:
Query string: Note CC50 at 72 h for the molecule shown: C[N+](C)(C)CCCC=C(c1ccccc1)c1ccccc1.[I-] [Compound 3b]
Result string: 27.2 µg/mL

Values compiled from paper PMC6273649.
